Test system Peptidyl-prolyl cis-trans isomerase FKBP1A (Homo sapiens), IC50 listed for each of the compounds.
METRIC: IC50 (nM)

Some solved entries appear below for comparison.
COMPOUND	OBSERVED_MEASUREMENT
CC[C@@H]1/C=C(\C)C[C@H](C)C[C@H](OC)[C@H]2O[C@@](O)(C(=O)C(=O)N3CCCC[C@H]3C(=O)O[C@H](/C(C)=C/C3CC[C@@H](OCC(=O)Nc4ccc(Cl)c(Cl)c4)[C@H](OC)C3)[C@H](C)[C@@H](O)CC1=O)[C@H](C)C[C@@H]2OC (some centres undefined)	500
CC[C@@H]1/C=C(\C)C[C@H](C)C[C@H](OC)[C@H]2O[C@@](O)(C(=O)C(=O)N3CCCC[C@H]3C(=O)O[C@H](/C(C)=C/C3CC[C@@H](OCC(=O)Nc4ccccc4)[C@H](OC)C3)[C@H](C)[C@@H](O)CC1=O)[C@H](C)C[C@@H]2OC (some centres undefined)	170

A: CCOC(=O)CO[C@@H]1CCC(/C=C(\C)[C@H]2OC(=O)[C@@H]3CCCCN3C(=O)C(=O)[C@]3(O)O[C@H]([C@@H](OC)C[C@@H](C)C/C(C)=C/[C@@H](CC)C(=O)C[C@H](O)[C@H]2C)[C@@H](OC)C[C@H]3C)C[C@H]1OC (some centres undefined)
B: CC[C@@H]1/C=C(\C)C[C@H](C)C[C@H](OC)[C@H]2O[C@@](O)(C(=O)C(=O)N3CCCC[C@H]3C(=O)O[C@H](/C(C)=C/C3CC[C@@H](OCC(=O)O)[C@H](OC)C3)[C@H](C)[C@@H](O)CC1=O)[C@H](C)C[C@@H]2OC (some centres undefined)
Data request: Lower value of IC50 belongs to which: A or B ? Response format: the label of the selected entry.
Data returned: B
(B: 4 nM, A: 9.4 nM)

* * *

Species: Homo sapiens
PROTOCOL: Inhibition of human mixed lymphocyte response (MLR)
Type: functional
METRIC: IC50 (nM)

Some solved entries appear below for comparison.
COMPOUND	IC50, nM
CC[C@@H]1/C=C(\C)C[C@H](C)C[C@H](OC)[C@H]2O[C@@](O)(C(=O)C(=O)N3CCCC[C@H]3C(=O)O[C@H](/C(C)=C/C3CC[C@@H](OCC(=O)N(C)Cc4ccccc4)[C@H](OC)C3)[C@H](C)[C@@H](O)CC1=O)[C@H](C)C[C@@H]2OC (some centres undefined)	0.09
CO[C@H]1C[C@@H]2CC[C@@H](C)[C@@](O)(O2)C(=O)C(=O)N2CCCC[C@H]2C(=O)O[C@H]([C@H](C)C[C@@H]2CC[C@@H](O)[C@H](OC)C2)CC(=O)[C@H](C)/C=C(\C)[C@@H](O)[C@@H](OC)C(=O)[C@H](C)C[C@H](C)/C=C/C=C/C=C/1C	1.27
CC[C@@H]1/C=C(\C)C[C@H](C)C[C@H](OC)[C@H]2O[C@@](O)(C(=O)C(=O)N3CCCC[C@H]3C(=O)O[C@H](/C(C)=C/C3CC[C@@H](OCC(=O)NC4CCCCC4)[C@H](OC)C3)[C@H](C)[C@@H](O)CC1=O)[C@H](C)C[C@@H]2OC (some centres undefined)	0.47
CC[C@@H]1/C=C(\C)C[C@H](C)C[C@H](OC)[C@H]2O[C@@](O)(C(=O)C(=O)N3CCCC[C@H]3C(=O)O[C@H](/C(C)=C/C3CC[C@@H](OCC(=O)Nc4ccc(Cl)cc4)[C@H](OC)C3)[C@H](C)[C@@H](O)CC1=O)[C@H](C)C[C@@H]2OC (some centres undefined)	0.07
CC[C@@H]1/C=C(\C)C[C@H](C)C[C@H](OC)[C@H]2O[C@@](O)(C(=O)C(=O)N3CCCC[C@H]3C(=O)O[C@H](/C(C)=C/C3CC[C@@H](OCC(=O)Nc4ccccc4)[C@H](OC)C3)[C@H](C)[C@@H](O)CC1=O)[C@H](C)C[C@@H]2OC (some centres undefined)	0.29

1: CCOC(=O)CO[C@@H]1CCC(/C=C(\C)[C@H]2OC(=O)[C@@H]3CCCCN3C(=O)C(=O)[C@]3(O)O[C@H]([C@@H](OC)C[C@@H](C)C/C(C)=C/[C@@H](CC)C(=O)C[C@H](O)[C@H]2C)[C@@H](OC)C[C@H]3C)C[C@H]1OC (some centres undefined)
2: CC[C@@H]1/C=C(\C)C[C@H](C)C[C@H](OC)[C@H]2O[C@@](O)(C(=O)C(=O)N3CCCC[C@H]3C(=O)O[C@H](/C(C)=C/C3CC[C@@H](OCC(N)=O)[C@H](OC)C3)[C@H](C)[C@@H](O)CC1=O)[C@H](C)C[C@@H]2OC (some centres undefined)
Data request: Return label of the item with the larger IC50. Candidates: 1 , 2 . Response format: the label of the selected entry.
Data returned: 1

* * *

Species on record: Homo sapiens
PROTOCOL: Inhibition of human mixed lymphocyte response (MLR)
Format: functional
METRIC: IC50 (nM)
Enter your answer as a number in nM; do not include the unit.

Some solved entries appear below for comparison.
COMPOUND	UNIT_NAME	IC50
CC[C@@H]1/C=C(\C)C[C@H](C)C[C@H](OC)[C@H]2O[C@@](O)(C(=O)C(=O)N3CCCC[C@H]3C(=O)O[C@H](/C(C)=C/C3CC[C@@H](OCC(=O)Nc4ccc(OC)cc4)[C@H](OC)C3)[C@H](C)[C@@H](O)CC1=O)[C@H](C)C[C@@H]2OC (some centres undefined)	nM	0.04
CC[C@@H]1/C=C(\C)C[C@H](C)C[C@H](OC)[C@H]2O[C@@](O)(C(=O)C(=O)N3CCCC[C@H]3C(=O)O[C@H](/C(C)=C/C3CC[C@@H](OCC(=O)Nc4ccc(N5CCOCC5)cc4)[C@H](OC)C3)[C@H](C)[C@@H](O)CC1=O)[C@H](C)C[C@@H]2OC (some centres undefined)	nM	0.58
CC[C@@H]1/C=C(\C)C[C@H](C)C[C@H](OC)[C@H]2O[C@@](O)(C(=O)C(=O)N3CCCC[C@H]3C(=O)O[C@H](/C(C)=C/C3CC[C@@H](OCC(=O)Nc4ccc(O)cc4)[C@H](OC)C3)[C@H](C)[C@@H](O)CC1=O)[C@H](C)C[C@@H]2OC (some centres undefined)	nM	0.14

Then there is this compound:
Data request: So what's the measured IC50 for this one? CC[C@@H]1/C=C(\C)C[C@H](C)C[C@H](OC)[C@H]2O[C@@](O)(C(=O)C(=O)N3CCCC[C@H]3C(=O)O[C@H](/C(C)=C/C3CC[C@@H](OCC(=O)NCCc4ccccc4)[C@H](OC)C3)[C@H](C)[C@@H](O)CC1=O)[C@H](C)C[C@@H]2OC (some centres undefined)
Data returned: 0.34

* * *

Species: Homo sapiens
PROTOCOL: Inhibition of human mixed lymphocyte response (MLR)
Type: functional
METRIC: pIC50
Scale explanation: pIC50 corresponds to minus log10 of a concentration expressed in moles per litre.

Data request: So what's the measured pIC50 for this one? CC[C@@H]1/C=C(\C)C[C@H](C)C[C@H](OC)[C@H]2O[C@@](O)(C(=O)C(=O)N3CCCC[C@H]3C(=O)O[C@H](/C(C)=C/C3CC[C@@H](OCC(=O)Nc4ccccn4)[C@H](OC)C3)[C@H](C)[C@@H](O)CC1=O)[C@H](C)C[C@@H]2OC (stereo partly specified)
Data returned: 10.30

* * *

Let's look at some compounds and their measured pIC50.
Species: Homo sapiens
PROTOCOL: Inhibition of human mixed lymphocyte response (MLR)
Type: functional
Scale explanation: pIC50 corresponds to minus log10 of a concentration expressed in moles per litre.

COMPOUND	OBSERVED_MEASUREMENT
CC[C@@H]1/C=C(\C)C[C@H](C)C[C@H](OC)[C@H]2O[C@@](O)(C(=O)C(=O)N3CCCC[C@H]3C(=O)O[C@H](/C(C)=C/C3CC[C@@H](OCC(=O)Nc4ccc(C)cc4)[C@H](OC)C3)[C@H](C)[C@@H](O)CC1=O)[C@H](C)C[C@@H]2OC (some centres undefined)	10.70
CC[C@@H]1/C=C(\C)C[C@H](C)C[C@H](OC)[C@H]2O[C@@](O)(C(=O)C(=O)N3CCCC[C@H]3C(=O)O[C@H](/C(C)=C/C3CC[C@@H](OCC(=O)Nc4ccc(Cl)c(Cl)c4)[C@H](OC)C3)[C@H](C)[C@@H](O)CC1=O)[C@H](C)C[C@@H]2OC (some centres undefined)	9.26
CC[C@@H]1/C=C(\C)C[C@H](C)C[C@H](OC)[C@H]2O[C@@](O)(C(=O)C(=O)N3CCCC[C@H]3C(=O)O[C@H](/C(C)=C/C3CC[C@@H](OCC(=O)Nc4ccc(C(F)(F)F)cc4)[C@H](OC)C3)[C@H](C)[C@@H](O)CC1=O)[C@H](C)C[C@@H]2OC (some centres undefined)	9.64

Then there is this compound:
Data request: So what's the measured pIC50 for this one? CC[C@@H]1/C=C(\C)C[C@H](C)C[C@H](OC)[C@H]2O[C@@](O)(C(=O)C(=O)N3CCCC[C@H]3C(=O)O[C@H](/C(C)=C/C3CC[C@@H](OCC(=O)Nc4cccc(F)c4)[C@H](OC)C3)[C@H](C)[C@@H](O)CC1=O)[C@H](C)C[C@@H]2OC (some centres undefined)
Data returned: 9.80
